Data credit: patent US8142782B2

test system: EGFR; test: EGFR phosphorylation in serum-starved CGNs (immunoblot of neuronal lysates); format: cell-based; conditions: CGNs, Nogo-66-elicited trans-activation
QUANTITY KIND: effect on EGFR phosphorylation subsequent to Nogo-66 treatment

> print(dat)
                                   molecule        reading
1  CC(C)(C)n1nc(-c2ccc(Cl)cc2)c2c(N)ncnc21 [PP2]  had no effect
2  CNC(=O)[C@H](Cc1c[nH]c2ccccc12)NC(=O)[C@@H](CC(=O)NO)CC(C)C [GM6001]  had no effect
3  Cn1c2ccccc2c2c3c(c4c5ccccc5n(CCC#N)c4c21)CNC3=O [Go6976]  had no effect
